# PROCEDURE SUMMARY: Inhibition of HCV recombinant NS5B polymerase using [alpha32p]GTP after 30 mins by scintillation counting
# Design: species or system Hepacivirus hominis
pIC50: −log10 of the molar value.
Given measured pIC50, output T if it is greater than or equal to 5 and F if not.

1. O=c1c(OCc2ccccc2Cl)c(-c2ccccc2)oc2cc(O)cc(O)c12	F
2. O=c1c(OCc2ccc(Br)cc2)c(-c2ccccc2)oc2cc(O)cc(O)c12	T
3. N#CCCCOc1ccccc1C(=O)/C=C(\O)C(=O)O	T
4. Cc1ccc(COc2c(-c3ccccc3)oc3cc(O)cc(O)c3c2=O)cc1	F

Then this molecule:
Query string: Identify whether the reported pIC50 of the following molecule is 5 or greater: O=c1c(OCc2cccc(Cl)c2)c(-c2ccccc2)oc2cc(O)cc(O)c12
Result string: T

Values compiled from ChEMBL document CHEMBL1268935.
